System: Rattus norvegicus
ASSAY_REMARKS: Effect on latency to enter dark chamber after administration of 1 mg/kg of the compound
Assay type: functional
MEASURE_NAME: Number (%)

                 compound_smiles  measure_name  endpoint_result
0  Oc1ccc(/C=N/c2nc3ccccc3s2)cc1        Number               58
1        Oc1ccc(/C=N/c2nccs2)cc1        Number               42
2       Clc1ccc(/C=N/c2nccs2)cc1        Number               25
